# assay.protocol: DRUGMATRIX: Calcium Channel Type L, Benzothiazepine radioligand binding (ligand: [3H] Diltiazem)
# Format: cell membranes, Rattus norvegicus, Wistar, Brain, Membrane
# test.conditions: Not Active = under 50% inhibition at 10 µM

{"compound": "CC[C@H](C)C(=O)O[C@H]1C[C@H](O)C=C2C=C[C@H](C)[C@H](CC[C@@H](O)C[C@@H](O)CC(=O)O)[C@H]21", "Ki": "Not Active"}
{"compound": "CNC(=C[N+](=O)[O-])NCCSCc1csc(CN(C)C)n1", "Ki": "Not Active"}
{"compound": "CC(=O)O[C@]1(C(C)=O)CC[C@H]2[C@@H]3C=C(Cl)C4=CC(=O)[C@@H]5C[C@@H]5[C@]4(C)[C@H]3CC[C@@]21C [CYPROTERONE ACETATE]", "Ki": "Not Active"}
{"compound": "Cc1cnc(C(=O)NCCc2ccc(S(=O)(=O)NC(=O)NC3CCCCC3)cc2)cn1 [GLIPIZIDE]", "Ki": "Not Active"}
{"compound": "Nc1nc(N)nc(NC2CC2)n1", "Ki": "Not Active"}
{"compound": "CC(C(=O)O)c1ccc(-c2ccccc2)c(F)c1 (stereo not drawn)", "Ki": "Not Active"}
{"compound": "CCOC(N)=O", "Ki": "Not Active"}
{"compound": "CN1C[C@H](C(=O)N[C@]2(C)O[C@@]3(O)[C@@H]4CCCN4C(=O)[C@H](Cc4ccccc4)N3C2=O)C[C@@H]2c3cccc4[nH]cc(c34)C[C@H]21 [DIHYDROERGOTAMINE]", "Ki": "Not Active"}
